Molecular target: porcine pancreatic elastase (PPE) (Sus scrofa)
Construct: purchased Sigma-Aldrich (St. Louis, MO, United States)
Assay: Intrinsic fluorescence quenching of PPE: Stern-Volmer, binding constants, thermodynamics
Conditions: van't Hoff, 298, 303, 310 K

[
  {
    "compound": "O=c1cc(-c2ccc(O)c(O)c2)oc2cc(O[C@@H]3O[C@H](CO)[C@@H](O)[C@H](O)[C@H]3O)cc(O)c12 [luteoloside]",
    "ΔS": "72.107 J/(mol•K)"
  },
  {
    "compound": "O=c1c(O)c(-c2ccc(O)c(O)c2)oc2cc(O)cc(O)c12",
    "ΔS": "45.6521 J/(mol•K)"
  },
  {
    "compound": "O=c1c(O[C@@H]2O[C@H](CO)[C@H](O)[C@H](O)[C@H]2O)c(-c2ccc(O)c(O)c2)oc2cc(O)cc(O)c12 [hyperoside]",
    "ΔS": "−4.108 J/(mol•K)"
  },
  {
    "compound": "O=c1cc(-c2ccc(O)c(O)c2)oc2cc(O)cc(O)c12",
    "ΔS": "−6.585 J/(mol•K)"
  }
]

* * *

As shown below, each of these compounds has a reported decrease of α-helical structure value.
Target: porcine pancreatic elastase (PPE) (Sus scrofa, UniProt P00772)
Construct: purchased Sigma-Aldrich (St. Louis, MO, United States)
Sequence (P00772 27-266): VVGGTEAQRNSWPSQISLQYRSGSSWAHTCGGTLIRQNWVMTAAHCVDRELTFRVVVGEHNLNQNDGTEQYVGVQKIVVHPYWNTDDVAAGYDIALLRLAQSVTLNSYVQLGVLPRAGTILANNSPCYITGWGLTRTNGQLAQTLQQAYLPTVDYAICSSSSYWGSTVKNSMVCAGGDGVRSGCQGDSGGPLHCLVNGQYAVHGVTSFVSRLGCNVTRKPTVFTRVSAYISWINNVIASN
Assay: CD spectroscopy, secondary structure of PPE
Settings: PPE 5 μM, flavonoid 2.5 μM, 298 K

[
  {
    "compound": "O=c1cc(-c2ccc(O)c(O)c2)oc2cc(O)cc(O)c12 [luteolin]",
    "decrease of α-helical structure": "0.96%"
  },
  {
    "compound": "O=c1c(O)c(-c2ccc(O)c(O)c2)oc2cc(O)cc(O)c12 [quercetin]",
    "decrease of α-helical structure": "1.14%"
  },
  {
    "compound": "O=c1cc(-c2ccc(O)c(O)c2)oc2cc(O[C@@H]3O[C@H](CO)[C@@H](O)[C@H](O)[C@H]3O)cc(O)c12 [luteoloside]",
    "decrease of α-helical structure": "1.99%"
  },
  {
    "compound": "O=c1c(O[C@@H]2O[C@H](CO)[C@H](O)[C@H](O)[C@H]2O)c(-c2ccc(O)c(O)c2)oc2cc(O)cc(O)c12 [hyperoside]",
    "decrease of α-helical structure": "1.20%"
  }
]
